Test system: GL261 cells
Test: in vitro GL261 cell viability assay (CellTiter-Glo)
Type: cell-based, murine
Conditions: Mus musculus, GL261; 72 hours of incubation; CDN-4 21% drug loaded
OUTCOME MEASURE: IC50 (nM)
Numbers only here, please. The scale is nM.

IC50 for Cc1[nH]c2ccccc2c1CCNCc1ccc(/C=C/C(=O)NO)cc1 [panobinostat] ?
170

* * *

System: GL261 cells
Experiment: in vitro GL261 cell viability assay (CellTiter-Glo)
Type: cell-based, murine
Details: 72 hours of incubation; CDN-4 21% drug loaded
OUTCOME MEASURE: IC50 (nM)
Numbers only here, please. The scale is nM.

IC50 for Cc1[nH]c2ccccc2c1CCNCc1ccc(/C=C/C(=O)NO)cc1 [non-CDN-formulated Pb] ?
230
